# target-entity: TLR8 (Homo sapiens, UniProt Q9NR97)
# test-details: Human whole blood assay, ssRNA-TNF
# Type: cell-based
measured-attribute: IC50 (nM)

Cc1cc(N2CCc3c(c(C)nn3CC34CCC(NC(=O)[C@@H]5COCCN5)(CC3)CC4)C2)c2cnn(C)c2n1: 31

====

# target-entity: TLR8 (Homo sapiens)
# test-details: Human neutrophil ROS production, TL8-506 stimulation
# Format: cell-based
measured-attribute: IC50 (nM)

Cc1cc(N2CCc3c(c(C)nn3CC34CCC(NC(=O)[C@@H]5COCCN5)(CC3)CC4)C2)c2cnn(C)c2n1: 5.2

====

# target-entity: TLR8 (Homo sapiens)
# test-details: HEK293-NFkB-luciferase reporter cells transfected with TLR8, R848 stimulation
# Type: cell-based
measured-attribute: IC50 (nM)

Cc1cc(N2CCc3c(c(C)nn3CC34CCC(NC(=O)[C@@H]5COCCN5)(CC3)CC4)C2)c2cnn(C)c2n1 [MHV370]: 4.5

====

# target-entity: TLR7 (Homo sapiens, UniProt Q9NYK1)
# Sequence (Q9NYK1 27-1049): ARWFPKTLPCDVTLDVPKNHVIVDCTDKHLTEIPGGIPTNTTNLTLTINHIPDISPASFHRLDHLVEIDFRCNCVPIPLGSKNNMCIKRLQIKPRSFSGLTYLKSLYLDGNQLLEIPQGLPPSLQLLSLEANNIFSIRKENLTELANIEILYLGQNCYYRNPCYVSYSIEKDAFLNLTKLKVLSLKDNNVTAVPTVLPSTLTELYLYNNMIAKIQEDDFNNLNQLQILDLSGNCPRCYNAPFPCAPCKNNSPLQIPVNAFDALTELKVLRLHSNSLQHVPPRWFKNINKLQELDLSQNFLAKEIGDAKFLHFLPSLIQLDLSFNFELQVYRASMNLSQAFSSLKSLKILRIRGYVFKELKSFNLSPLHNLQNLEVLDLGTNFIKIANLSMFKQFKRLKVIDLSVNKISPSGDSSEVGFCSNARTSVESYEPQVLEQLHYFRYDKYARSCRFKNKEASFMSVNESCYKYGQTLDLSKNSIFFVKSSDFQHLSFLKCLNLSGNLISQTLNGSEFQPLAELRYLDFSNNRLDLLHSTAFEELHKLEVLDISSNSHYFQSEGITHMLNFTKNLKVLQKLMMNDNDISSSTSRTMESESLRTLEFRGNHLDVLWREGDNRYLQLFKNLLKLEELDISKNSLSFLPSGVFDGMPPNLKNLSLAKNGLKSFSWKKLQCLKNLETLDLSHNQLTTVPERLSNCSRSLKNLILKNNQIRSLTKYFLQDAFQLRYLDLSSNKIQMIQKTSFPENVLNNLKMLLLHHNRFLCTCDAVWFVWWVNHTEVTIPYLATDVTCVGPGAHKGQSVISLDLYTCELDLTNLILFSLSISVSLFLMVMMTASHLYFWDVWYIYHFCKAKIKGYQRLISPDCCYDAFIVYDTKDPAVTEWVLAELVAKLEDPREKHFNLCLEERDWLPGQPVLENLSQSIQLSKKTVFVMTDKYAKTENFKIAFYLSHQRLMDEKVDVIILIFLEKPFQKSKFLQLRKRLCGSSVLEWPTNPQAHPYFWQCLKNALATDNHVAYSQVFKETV
# test-details: Ramos Blue NF-κB/AP-1 reporter B cell line, TLR7 stimulation
# Assay type: cell-based
# run-conditions: read-out: IC50, R848-driven reporter gene activity; Ramos cells; R848; mean ± SD
measured-attribute: IC50 (nM)

Cc1cc(N2CCc3c(c(C)nn3CC34CCC(NC(=O)[C@@H]5COCCN5)(CC3)CC4)C2)c2cnn(C)c2n1: 7

====

# target-entity: TLR8 (Homo sapiens, UniProt Q9NR97)
# test-details: Human PBMC assay, ssRNA-induced TNF
# Format: cell-based
pIC50: −log10 of the molar value.
measured-attribute: pIC50

Cc1cc(N2CCc3c(c(C)nn3CC34CCC(NC(=O)[C@@H]5COCCN5)(CC3)CC4)C2)c2cnn(C)c2n1 [MHV370]: 7.15

====

# target-entity: TLR7 (Homo sapiens, UniProt Q9NYK1)
# test-details: Human PBMC assay, ssRNA-induced IFN-α
# Type: cell-based
# run-conditions: human PBMCs, mean ± SEM (n)
pIC50: −log10 of the molar value.
measured-attribute: pIC50

Cc1cc(N2CCc3c(c(C)nn3CC34CCC(NC(=O)[C@@H]5COCCN5)(CC3)CC4)C2)c2cnn(C)c2n1: 8.39

====

# target-entity: murine TLR7 (Mus musculus, UniProt P58681)
# test-details: Murine whole blood assay, ssRNA-induced IFN-α and TNF
# run-conditions: IC50, TLR7 (ssRNA-IFN-α), mouse blood; mean ± SEM (n)
pIC50: −log10 of the molar value.
measured-attribute: pIC50

Cc1cc(N2CCc3c(c(C)nn3CC34CCC(NC(=O)[C@@H]5COCCN5)(CC3)CC4)C2)c2cnn(C)c2n1: 7.24

====

# target-entity: TLR9 (Mus musculus, UniProt Q9EQU3)
# Sequence (Q9EQU3 26-1032): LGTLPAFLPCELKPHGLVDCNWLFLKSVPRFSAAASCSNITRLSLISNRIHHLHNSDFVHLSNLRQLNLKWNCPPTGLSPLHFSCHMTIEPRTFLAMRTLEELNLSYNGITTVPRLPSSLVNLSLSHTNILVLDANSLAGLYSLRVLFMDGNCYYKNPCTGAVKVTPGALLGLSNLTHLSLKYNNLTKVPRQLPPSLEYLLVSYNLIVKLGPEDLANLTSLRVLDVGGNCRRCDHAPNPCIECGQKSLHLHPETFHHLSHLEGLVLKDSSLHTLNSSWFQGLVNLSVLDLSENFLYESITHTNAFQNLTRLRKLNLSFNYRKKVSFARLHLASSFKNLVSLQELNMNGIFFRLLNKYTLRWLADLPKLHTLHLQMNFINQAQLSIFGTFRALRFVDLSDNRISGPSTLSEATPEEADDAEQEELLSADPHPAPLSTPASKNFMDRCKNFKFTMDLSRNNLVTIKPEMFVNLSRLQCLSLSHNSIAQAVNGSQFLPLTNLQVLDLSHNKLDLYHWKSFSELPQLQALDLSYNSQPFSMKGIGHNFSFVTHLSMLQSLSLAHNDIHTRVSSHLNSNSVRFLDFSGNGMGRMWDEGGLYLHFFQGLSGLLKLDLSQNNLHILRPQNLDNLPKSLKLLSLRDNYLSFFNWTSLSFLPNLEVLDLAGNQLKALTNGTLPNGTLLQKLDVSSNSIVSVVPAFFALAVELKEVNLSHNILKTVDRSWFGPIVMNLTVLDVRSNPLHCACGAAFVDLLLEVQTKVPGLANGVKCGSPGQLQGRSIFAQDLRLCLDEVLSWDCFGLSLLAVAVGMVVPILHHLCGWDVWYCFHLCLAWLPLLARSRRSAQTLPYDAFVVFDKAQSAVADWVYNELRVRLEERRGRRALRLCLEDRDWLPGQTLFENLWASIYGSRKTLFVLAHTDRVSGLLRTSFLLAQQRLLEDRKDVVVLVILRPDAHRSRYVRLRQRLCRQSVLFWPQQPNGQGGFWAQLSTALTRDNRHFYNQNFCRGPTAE
# test-details: Murine whole blood assay, ODN-IFN-α
measured-attribute: IC50

Cc1cc(N2CCc3c(c(C)nn3CC34CCC(NC(=O)[C@@H]5COCCN5)(CC3)CC4)C2)c2cnn(C)c2n1: > 10 µM

====

# target-entity: TLR7 (Mus musculus, UniProt P58681)
# Sequence (P58681 27-1050): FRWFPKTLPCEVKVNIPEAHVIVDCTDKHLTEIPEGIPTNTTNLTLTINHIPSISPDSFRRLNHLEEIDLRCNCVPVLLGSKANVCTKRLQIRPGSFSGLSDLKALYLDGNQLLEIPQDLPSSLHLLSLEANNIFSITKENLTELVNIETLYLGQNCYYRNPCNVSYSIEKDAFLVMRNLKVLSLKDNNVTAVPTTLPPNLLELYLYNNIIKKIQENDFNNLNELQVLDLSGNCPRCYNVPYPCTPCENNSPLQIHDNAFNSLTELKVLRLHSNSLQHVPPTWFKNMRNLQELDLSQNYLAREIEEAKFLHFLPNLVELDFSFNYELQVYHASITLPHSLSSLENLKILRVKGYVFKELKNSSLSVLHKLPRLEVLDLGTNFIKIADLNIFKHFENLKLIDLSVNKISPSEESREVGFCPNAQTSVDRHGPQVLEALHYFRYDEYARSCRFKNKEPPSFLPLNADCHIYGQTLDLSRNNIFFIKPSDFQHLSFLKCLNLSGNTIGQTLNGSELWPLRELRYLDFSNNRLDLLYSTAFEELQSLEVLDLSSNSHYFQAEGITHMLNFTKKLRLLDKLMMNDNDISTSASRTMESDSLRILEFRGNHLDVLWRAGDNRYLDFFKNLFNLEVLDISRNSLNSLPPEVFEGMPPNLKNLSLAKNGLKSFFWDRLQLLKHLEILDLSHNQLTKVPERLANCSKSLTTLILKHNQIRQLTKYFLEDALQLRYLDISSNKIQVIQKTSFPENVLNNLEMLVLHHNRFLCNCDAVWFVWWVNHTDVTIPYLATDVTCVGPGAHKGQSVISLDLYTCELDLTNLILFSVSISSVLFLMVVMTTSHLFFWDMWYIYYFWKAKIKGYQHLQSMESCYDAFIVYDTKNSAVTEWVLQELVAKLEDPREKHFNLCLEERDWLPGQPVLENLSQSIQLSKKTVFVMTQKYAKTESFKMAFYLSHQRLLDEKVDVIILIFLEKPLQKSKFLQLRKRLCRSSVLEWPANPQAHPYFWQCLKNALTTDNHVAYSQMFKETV
# test-details: Ex vivo PD marker CD69 on B cells vs MHV370 blood exposure in NZB/W F1 mice
measured-attribute: IC50 (nM)

Cc1cc(N2CCc3c(c(C)nn3CC34CCC(NC(=O)[C@@H]5COCCN5)(CC3)CC4)C2)c2cnn(C)c2n1: 35

====

# target-entity: TLR7 (Homo sapiens)
# test-details: Ramos Blue NF-κB/AP-1 reporter B cell line, TLR7 stimulation
# Format: cell-based
# run-conditions: IC50, CL307-driven reporter gene activity, Ramos cells; CL307; mean ± SD
pIC50: −log10 of the molar value.
measured-attribute: pIC50

Cc1cc(N2CCc3c(c(C)nn3CC34CCC(NC(=O)[C@@H]5COCCN5)(CC3)CC4)C2)c2cnn(C)c2n1: 7.82

====

# target-entity: TLR7 (Homo sapiens, UniProt Q9NYK1)
# test-details: Human whole blood assay, ssRNA-IFN-α
# Format: cell-based
measured-attribute: IC50 (nM)

Cc1cc(N2CCc3c(c(C)nn3CC34CCC(NC(=O)[C@@H]5COCCN5)(CC3)CC4)C2)c2cnn(C)c2n1 [MHV370]: 8.4

====

# target-entity: TLR7/8 (Homo sapiens, UniProt Q9NR97)
# Sequence (Q9NR97 27-1041): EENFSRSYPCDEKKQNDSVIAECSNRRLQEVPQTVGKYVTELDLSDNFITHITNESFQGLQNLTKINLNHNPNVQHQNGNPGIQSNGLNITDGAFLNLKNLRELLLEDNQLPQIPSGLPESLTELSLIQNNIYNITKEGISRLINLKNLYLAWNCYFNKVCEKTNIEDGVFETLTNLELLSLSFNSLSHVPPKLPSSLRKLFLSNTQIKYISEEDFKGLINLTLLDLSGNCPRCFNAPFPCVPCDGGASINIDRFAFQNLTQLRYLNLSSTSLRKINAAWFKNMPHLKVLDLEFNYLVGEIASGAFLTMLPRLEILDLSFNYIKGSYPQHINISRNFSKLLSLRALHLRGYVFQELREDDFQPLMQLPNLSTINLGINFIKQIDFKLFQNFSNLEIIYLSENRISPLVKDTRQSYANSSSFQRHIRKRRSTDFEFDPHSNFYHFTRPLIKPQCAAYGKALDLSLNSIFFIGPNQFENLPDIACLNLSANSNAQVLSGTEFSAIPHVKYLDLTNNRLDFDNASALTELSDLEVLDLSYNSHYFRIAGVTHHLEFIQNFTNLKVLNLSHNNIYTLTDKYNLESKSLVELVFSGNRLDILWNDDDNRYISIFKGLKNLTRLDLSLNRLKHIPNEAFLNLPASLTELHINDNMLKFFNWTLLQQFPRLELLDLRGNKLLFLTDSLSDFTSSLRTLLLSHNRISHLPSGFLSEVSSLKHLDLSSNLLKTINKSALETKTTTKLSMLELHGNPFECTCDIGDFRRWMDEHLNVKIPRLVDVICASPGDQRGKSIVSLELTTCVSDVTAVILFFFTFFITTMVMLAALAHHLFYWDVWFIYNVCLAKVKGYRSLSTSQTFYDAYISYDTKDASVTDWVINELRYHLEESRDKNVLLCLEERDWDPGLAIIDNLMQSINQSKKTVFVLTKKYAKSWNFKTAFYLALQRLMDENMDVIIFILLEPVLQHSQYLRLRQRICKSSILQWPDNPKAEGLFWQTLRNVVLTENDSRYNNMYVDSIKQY
# test-details: Human neutrophil ROS production, R848 stimulation
# Assay type: cell-based
pIC50: −log10 of the molar value.
measured-attribute: pIC50

Cc1cc(N2CCc3c(c(C)nn3CC34CCC(NC(=O)[C@@H]5COCCN5)(CC3)CC4)C2)c2cnn(C)c2n1: 8.42

Ref: paper PMC10213863
